Tested on: GRK1;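 note: KINOMEscan kinase panel screen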
Conditions: concentration: 1 μM, replicates: in singlicate; n = 1
Please respond with reported %Inh for every item in the list.

Item under review: Cc1cccc(-c2nc(Nc3cccc(C(N)=O)c3)c3ccccc3n2)n1 [GW876019] . Reported %Inh?
14%

Can you check Cc1ccc(NC(=O)Nc2cc(C(C)(C)C)nn2-c2ccccc2)cc1 [GSK1014915] next?
9%

And Cl.c1ccc(-c2n[nH]cc2-c2ccnc(-c3ccc(CN4CCOCC4)cc3)c2)nc1 [GW776245] ?
37%

`O=C(Nc1ccccc1)Nc1cccc(Oc2ccc3nccn3n2)c1` , same question.
0%

Also O=C(Nc1n[nH]c2cc(-c3cccc(F)c3F)ccc12)C1CC1 [SB-733894] ?
44%

Now the compound Cc1ccc(NC(=O)Nc2cccc(Cl)c2)cc1-c1ccc(C(=O)Nc2ccncc2)cc1 [GSK1398468]
0%

Cool, now Cl.O=C(Nc1cccc(-c2nn3ncccc3c2-c2ccnc(Nc3cccnc3)n2)c1)c1c(F)cccc1F [GSK312879]
20%

And the next one, Cc1cccc(-c2nc(Nc3ccc4[nH]ncc4c3)c3ccccc3n2)n1 [GW857175] ?
3%

Further, for Cc1ccc(C(=O)Nc2ccc(Nc3ccnc4cc(-c5ccccn5)ccc34)cc2O)cc1.Cl [GW440146] ?
0%

And the next one, Cc1cc(N2Cc3ccccc3C2)nc(Nc2ccc(S(=O)(=O)N3CCOCC3)cc2)n1.Cl [GSK1669917] ?
0%

Would you mind doing O=c1cc(N2CCOCC2)nc2n(Cc3cccc(Cl)c3Cl)ccn12 [GSK2286295] as well?
5%

Now try Cc1csc(-c2nc(Nc3ccncc3)c3ccccc3n2)n1 [GW869640] .
27%

Request: O=S(=O)(c1ccc(-c2ccnc3[nH]ccc23)cc1)N1CCCC1 [GSK846226]
0%

Item: Cc1c(Cn2ccn3c(=O)cc(N4CCOCC4)nc23)cccc1C(F)(F)F [GSK2289044]
0%

Request: CCn1c(-c2ccccn2)nc2cnccc21 [SB-736398]
1%

What do we get for CN(C)CCN(C)C(=O)c1cc(-c2ccncc2)c(-c2ccc(Cl)c(O)c2)o1.Cl.Cl [SB-710397] ?
4%

What would you report for CN1C(=O)C(Nc2ccc(Cl)c(C(=O)O)c2)=C(c2ccc(Cl)cc2)C1=O [SB-404290] ?
12%

Same for Cc1cccc(-c2nc(C)cc(Nc3ccncc3)n2)n1 [GSK257997]
0%

Another compound: COc1ccccc1-c1ccc2c(NC(=O)C3CC3)n[nH]c2n1 [SB-711239]
13%

Same question, `CC(C)(C)c1ccc(C(=O)Nc2cn3cc(-c4cccnc4)ccc3n2)cc1` this time
41%

Record: COc1cccc(-c2cc(-c3c[nH]nc3-c3ccccn3)ccn2)c1 [GW680338]
1%

Quick one: CCCc1ccc(S(=O)(=O)NC2CCN(c3ccnc(Nc4ccc(F)cc4)n3)C2)cc1 (centres unmarked) [GSK1379715]
100%

Also COc1ccc(Nc2nccc(NCCNC(=O)Nc3ccccc3F)n2)cc1 [GSK1379901] , if possible.
0%

Please give the result for `Cn1ccc2ncnc(Oc3cccc(C(=O)Nc4ccccc4)c3)c21` too.
0%

Next record, please: COc1cc2ncnc(Nc3ccc4nc(-c5ccccc5)[nH]c4c3)c2cc1OC.Cl [GW282450]
0%

And then COc1cccc(NC(=O)NC2CCN(c3ccnc(Nc4ccc(F)cc4)n3)C2)c1 (centres unmarked) [GSK1379721] , what is it?
0%

Thanks! And `CS(=O)(=O)c1ccc(-c2c(-c3ncn[nH]3)sc(N3CCOCC3)c2C#N)cc1` ?
25%

And the next one, Cc1ccccc1-n1cnc2c(N)ncnc21 [SKF-97510] ?
0%

Another: CSc1nn2c(=O)cc(N3CCOCC3)nc2n1Cc1cccc(C(F)(F)F)c1C [GSK2363608]
0%

Now this one: Fc1cc(Cl)ccc1Nc1ccnc2cc(-c3ccc(CN4CCCCC4)o3)ccc12 [GW560116]
0%

Also need Nc1nc(-c2nccs2)c(-c2ccnc3ccccc23)s1 [GW693542] , thanks.
0%

Also check Cc1c(O)cccc1Nc1ccnc2ccc(C(F)(F)F)cc12.Cl [GW466413]
14%

Ok, now `Fc1cccc(COc2nnc(-c3ccc4c(c3)CCO4)o2)c1`
0%

Let us now turn to Cl.NC(=O)c1cccc(Nc2nccc(Nc3ccc(Oc4cccc(Cl)c4)c(Cl)c3)n2)c1 [GW659008]
0%

Also `COC(=O)c1c(-c2ccccc2)c2cc(OC)ccc2c(=O)n1Cc1ccccc1` , if possible.
0%

Now consider COc1ccc(CNC(=O)NC2CCN(c3ccnc(Nc4cc(OC)c(OC)c(OC)c4)n3)C2)cc1 (centres unmarked) [GSK1379748] .
0%

Now the compound Cn1cncc1-c1ccc2ncnc(Nc3ccc(OCc4ccccc4)cc3)c2c1 [GW320571]
8%

Record: COc1cc2nccc(Nc3ccc(NC(=O)c4ccc(C)cc4)c(O)c3)c2cc1OC.Cl [GW440132]
0%

These data points were gathered from paper PMC5540273.
